# Tested on: HOP-92 NSCLC
# test-protocol: NCI tumour cell line growth inhibition, 48 h
property-name: TGI

Some solved cases for reference:
CCOC(=O)Nc1ccc2c(c1)/C(=N\NC(N)=S)c1ccccc1-2 | 62.5 µM
NC(=O)C(=O)N/N=C1\C(=O)N(c2ccc(Cl)cc2Cl)C(=O)C1C(=O)Nc1ccc(Cl)cc1Cl (stereo unspecified) | > 100 µM
CCCCCCCCCCCc1nnc(N)o1 | > 100 µM

Req: Provide TGI, system HOP-92 NSCLC, entry NCCCOc1ccc([N+](=O)[O-])cc1Cl
Resp: > 100 µM

Req: Provide TGI, system HOP-92 NSCLC, entry O=C(O)C1=C(O)C(C(=O)O)C23CCCCCCCCCCC12C(C(=O)O)C(O)=C3C(=O)O (stereo unspecified)
Resp: > 100 µM

Req: Provide TGI, system HOP-92 NSCLC, entry Cc1c[n+](=O)c2ccccc2n1[O-]
Resp: > 100 µM

###

Listed compounds paired with reported GI50
# System: HOP-62 NSCLC
# test-protocol: NCI tumour cell line growth inhibition, 48 h
Where a SMILES comes first, the peptide text is derived from it. [ ]: non-standard residue; d: D form. pGlu = O=C1CC[CH](C(=O)O)N1

CCNC(=O)C1CCCN1C(=O)C(CCCN=C(N)N)NC(=O)C(CC(C)C)NC(=O)C(CC(C)C)NC(=O)C(Cc1ccc(O)cc1)NC(=O)C(CO)NC(=O)C(Cc1c[nH]c2ccccc12)NC(=O)C(Cc1cnc[nH]1)NC(=O)C1CCC(=O)N1 (stereo not drawn) ([pGlu]HWSYLLRP-NHEt; configuration not given here) | > 100 µM
COc1ccc2[nH]cc(-c3ccc(-c4c[nH]c5ccc(OC)cc45)s3)c2c1 | 4.67 µM

Req: Please report the measured GI50 for CN(O)C(=O)SCC(NC(=O)CCC(N)C(=O)O)C(=O)NCC(=O)O (stereo not drawn)
Resp: > 2000 µM

###

Listed molecules paired with reported TGI
# Test system: OVCAR-4 ovarian
# test-protocol: NCI tumour cell line growth inhibition, 48 h

Some solved cases for reference:
c1coc(CNc2ncnc3[nH]ncc23)c1 | > 100 µM
C[C@@]1(C(=O)O)CCC[C@]2(C)C1CC[C@@]13CC(=O)[C@@](CO)(CC[C@]12O)C3 (stereo partly drawn) | > 100 µM

Req: Please report the measured TGI for N.N.N.N.N.NC(=O)c1nn[n-]n1.[Cl-].[Co+3]
Resp: > 100 µM

###

Listed compounds paired with reported TGI
# Tested on: OVCAR-4 ovarian
# test-protocol: NCI tumour cell line growth inhibition, 48 h

Some solved cases for reference:
Cc1ccc2c(c1)C(=O)N(N(C)C)CC(=O)N2 | > 100 µM
N=C(N)C1CN(CCCCCCCCCCN2CC(C(=N)N)C(=O)NC2=O)C(=O)NC1=O (stereo unspecified) | > 10 µM

Req: Please report the measured TGI for Cc1c2ccncc2c(C)c2c1[nH]c1ccc(OC(C)C)cc12
Resp: 3.14 µM

Req: Please report the measured TGI for N=C1C(c2nc3ccccc3s2)=C(O)CN1c1ccc(F)c(Cl)c1
Resp: > 100 µM

Req: Please report the measured TGI for COC1=C(N)C(=O)c2nc(C)ccc2C1=O
Resp: 3.66 µM

Req: Please report the measured TGI for CC(=O)NC1C(OC[C@@H](CC(=O)N[C@@H](CC(=O)O)CC(=O)N[C@H](CC(=O)N[C@@H](CCCN)CC(=O)N[C@@H](CCCN)CC(=O)N[C@H](CC(N)=O)C(C)C)C(C)C)NC(=O)C[C@@H](N)C(C)C)OC(CO)C(O)C1O (stereo partly specified)
Resp: > 100 µM

Req: Please report the measured TGI for Fc1ccc(Oc2nc3ccc(C(F)(F)F)cc3nc2-c2ccccc2)cc1
Resp: > 100 µM

Req: Please report the measured TGI for O=[N+]([O-])C(=C(Nc1ccccc1)Nc1ccccc1)/C(Cl)=C(\Cl)[N+](=O)[O-]
Resp: 17.6 µM

Req: Please report the measured TGI for CCc1ccccc1NC(=O)C1=C(C)NC(C)=C(C(=O)Nc2ccccc2CC)C1c1ccccc1Cl
Resp: > 100 µM

Req: Please report the measured TGI for N.N.N.N.[Co+3].[N-]=[N+]=[N-].[N-]=[N+]=[N-].[N-]=[N+]=[N-]
Resp: > 100 µM

Req: Please report the measured TGI for COc1cc(C=O)cc(/C=N/n2c3ccccc3c3ccccc32)c1O
Resp: > 100 µM

###

# Test system: HOP-62 NSCLC
# test-protocol: NCI tumour cell line growth inhibition, 48 h
property-name: GI50

Some solved cases for reference:
O=C(Oc1cccc(F)c1OC(=O)c1cccc(O)c1)c1cccc(O)c1 | 50.7 µM
N=C1C(c2nc3ccccc3s2)=C(O)CN1c1ccc(F)c(Cl)c1 | 18.1 µM
COc1ccc(C(=S)N2CCN(c3cccc(C)c3)CC2)cc1OC | 5.53 µM
CCN1C(=O)N(CC)C2C1NN=c1s/c(=C\c3cccc(F)c3)c(=O)n12 (stereo unspecified) | 0.598 µM
CC1(C)C2CCC13C(=O)C1OC3(C2)C2C(=O)c3cc4ccccc4cc3C(=O)C12 (stereo unspecified) | 7.64 µM

Req: Please report the measured GI50 for C[C@H](NC(=O)[C@@H](C)N)[C@H](Oc1ccc2c(cnn2-c2ccc(F)cc2)c1)c1ccc2c(c1)OCCO2
Resp: 4.34 µM

###

# Test system: K-562 leukemia
# test-protocol: NCI tumour cell line growth inhibition, 48 h
Listed compounds paired with reported TGI
Field format: number, assumed µM, no unit text.

C=C(CN1C(=O)CN(C)C1=O)c1ccc(C(=O)Nc2ccccc2N)cc1 | 74.5

Could you now look at the following compound, please?
Req: Please report the measured TGI for CCOC(=O)N1CCN(/[N+]([O-])=N/Oc2ccc([N+](=O)[O-])cc2[N+](=O)[O-])CC1
Resp: 3.72

###

# Tested on: HT29 colon
# test-protocol: NCI tumour cell line growth inhibition, 48 h
Listed compounds paired with reported TGI
Field format: number, assumed µM, no unit text.

COc1ccc(/C=C/C(=O)c2cc(OC)c(OC)c(OC)c2)cc1OCc1cn(Cc2ccc(F)cc2)nn1 | 7.3

Could you now look at the following compound, please?
Req: Provide TGI, system HT29 colon, entry C=C1C(=O)O[C@H]2[C@H]1CC/C(CNC(=O)/C=C/c1cc(OC)c(OC)c(OC)c1)=C\CC[C@@]1(C)O[C@@H]21
Resp: 8.31

###

Listed molecules paired with reported GI50
# System: NCI-H522 lung
# test-protocol: NCI tumour cell line growth inhibition, 48 h

Some solved cases for reference:
COc1ccc(-c2nn(-c3cccc(Cl)c3)cc2-c2cc(-c3cccs3)[nH]c(=S)n2)cc1 | 2.54 µM
CCOC(=O)Nc1ccc2c(c1)/C(=N\NC(N)=S)c1ccccc1-2 | 3.84 µM
C[C@]12CC[C@@H]3c4ccc(OC(=O)N(CCCl)CCCl)cc4CC[C@H]3[C@@H]1CC[C@@H]2O | 2.53 µM
CN(O)C(=O)SCC(NC(=O)CCC(N)C(=O)O)C(=O)NCC(=O)O (stereo not given) | > 2000 µM

Could you now look at the following molecule, please?
Req: Please report the measured GI50 for O=c1[nH]c(=O)c2cn[nH]c2[nH]1
Resp: > 100 µM

###

# Test system: RPMI-8226 leukemia
# test-protocol: NCI tumour cell line growth inhibition, 48 h
Listed molecules paired with reported TGI

Some solved cases for reference:
N.N.N.N.N.NC(=O)c1nn[n-]n1.[Cl-].[Co+3] | > 100 µM
OC1c2ccccc2CC12Cc1ccccc1C2 (stereo not drawn) | > 100 µM
CCN(Cc1cc(Nc2nc(C)cn3c(-c4cn[nH]c4)cnc23)sn1)C(C)(C)CO | 10.1 µM
COc1ccc(-c2nn(-c3cccc(Cl)c3)cc2-c2cc(-c3cccs3)[nH]c(=S)n2)cc1 | 10.9 µM

Req: Please report the measured TGI for N#Cc1ccc(OCc2nc(N)nc(N)c2-c2ccc(Cl)c(Cl)c2)cc1
Resp: > 100 µM

Req: Please report the measured TGI for CC(Cc1ccccc1)Nc1ncnc2c1ncn2C1OC(CO)CC1O (stereo not drawn)
Resp: > 100 µM

Req: Please report the measured TGI for O=C(NNC(=S)Nc1ccccc1)c1cc(-c2ccccc2)nc2ccccc12
Resp: 44.9 µM

Req: Please report the measured TGI for CC1(C)C2C=C(CCN3CCOCC3)CC1C2 (stereo not drawn)
Resp: > 100 µM

###

# Test system: HT29 colon
# test-protocol: NCI tumour cell line growth inhibition, 48 h
property-name: TGI

Some solved cases for reference:
OC1c2ccccc2CC12Cc1ccccc1C2 (stereo not drawn) | > 100 µM
COc1cc(C(O)CCBr)c(OC)cc1C (stereo not drawn) | > 58.3 µM

Could you now look at the following molecule, please?
Req: Please report the measured TGI for Fc1ccc(Oc2nc3ccc(C(F)(F)F)cc3nc2-c2ccccc2)cc1
Resp: > 100 µM
